System: MCF10A
Test: one-nucleolus phenotype percent effect, hitpick validation (relative to siNT 0% and siNOL11 100%); higher = more cells with one nucleolus
Settings: 20 nM; 72 h
For each record, write down the corresponding one-nucleolus phenotype percent effect.
Numbers only, in %.

AGUUUUGCAGGUUUGCAUCCAGC [hsa-miR-19b-1-5p]    196

Report one-nucleolus phenotype percent effect for each item below.
1. CUCUCCUCCCGGCUUC [hsa-miR-4279]
2. AGGAGCAGUGCCGGCCAAGGCGCC [hsa-miR-6081]

Result:
[188, 152]

====

Test system: MCF10A
Experiment: 5+ nucleoli phenotype percent effect (relative to siNT 0% and siKIF11 100%); higher = more cells with five or more nucleoli
Conditions: 20 nM; 72 h
reported endpoint: 5+ nucleoli phenotype percent effect
Reply with the number and its unit after it.

CUGCCAGCCCCGUUCCAGGGCA [hsa-miR-3972]    -1.63%
GGGGGCCGAUACACUGUACGAGA [hsa-miR-128-2-5p]    34.6%
UGACCCCCAUGUCGCCUCUGUAG [hsa-miR-6859-3p]    -21.2%
UGGGGAAGGCUUGGCAGGGAAGA [hsa-miR-6780b-5p]    -35.6%
GCGACCCACUCUUGGUUUCCA [hsa-miR-551a]    39.1%

Report 5+ nucleoli phenotype percent effect for each item below.
1. AGUGGGGAACCCUUCCAUGAGG [hsa-miR-491-5p]
2. CACAUGGCCGAAACAGAGAAGU [hsa-miR-942-3p]
3. CAGUAACAAAGAUUCAUCCUUGU [hsa-miR-802]
4. CAUCAUCGUCUCAAAUGAGUCU [hsa-miR-136-3p]
5. UGUGGACAGUGAGGUAGAGGGAGU [hsa-miR-3138]
6. GGGUGGGGAUUUGUUGCAUUAC [hsa-miR-92a-2-5p]
7. AAAAGCUGGGCUGAGAGGCG [hsa-miR-4429]

Result:
["-46.6%", "-8.03%", "-6.89%", "22.1%", "2.7%", "-28.2%", "-19.2%"]

====

For each record, write down the corresponding 5+ nucleoli phenotype percent effect.
Tested on: MCF10A
Assay: 5+ nucleoli phenotype percent effect (relative to siNT 0% and siKIF11 100%); higher = more cells with five or more nucleoli
Settings: 20 nM; 72 h
Answers are plain numbers, in %.

Known 5+ nucleoli phenotype percent effect results, listed for orientation:
UUCGGGCUGGCCUGCUGCUCCGG [hsa-miR-3944-3p]    17.5
CCCCACCUCCUCUCUCCUCAG [hsa-miR-1224-3p]    97.2

Let's switch to this sequence now.
Task: # 5+ nucleoli phenotype percent effect lookup, item UACAGCCCUGUGAUCUUUCCAG [hsa-miR-6856-3p]
Result: 21

====

System: MCF10A
Assay: 5+ nucleoli phenotype percent effect (relative to siNT 0% and siKIF11 100%); higher = more cells with five or more nucleoli
Conditions: 20 nM; 72 h
reported endpoint: 5+ nucleoli phenotype percent effect (%)
Answers are plain numbers, in %.

Known 5+ nucleoli phenotype percent effect results, listed for orientation:
AACCCGUAGAUCCGAUCUUGUG [hsa-miR-99a-5p]    1.63
UGCCUACUGAGCUGAUAUCAGU [hsa-miR-24-1-5p]    -18
ACCGAAGACUGUGCGCUAAUCU [hsa-miR-4671-5p]    14.8
GUGUGGAAGAUGGGAGGAGAAA [hsa-miR-6833-5p]    4.29
AAGGAGCUCACAGUCUAUUGAG [hsa-miR-28-5p]    -30.7

Report 5+ nucleoli phenotype percent effect for each item below.
1. AUAGGACUCAUAUAGUGCCAG [hsa-miR-3117-3p]
2. AUCUGUAAGAGAAAGUAAAUGA [hsa-miR-3686]
3. AACUCCAAACACUCAAAACUCA [hsa-miR-3145-5p]
4. UGGGCUGCUGAGAAGGGGCA [hsa-miR-6829-5p]
5. CAGGCAGGGAGGUGGGACCAUG [hsa-miR-6808-5p]

Result:
1. 33
2. 21.5
3. 43.6
4. 2.03
5. -14.6

Report 5+ nucleoli phenotype percent effect for each item below.
1. UGACCUUUGCCUCUCCCCUCAG [hsa-miR-6759-3p]
2. UAUUGCACUUGUCCCGGCCUGU [hsa-miR-92a-3p]
3. UGGCAGUGUCUUAGCUGGUUGU [hsa-miR-34a-5p]

Result:
1: -31.2; 2: 4.47; 3: -14.4

====

Test system: MCF10A
Assay: 5+ nucleoli phenotype percent effect (relative to siNT 0% and siKIF11 100%); higher = more cells with five or more nucleoli
Conditions: 20 nM; 72 h
For each record, write down the corresponding 5+ nucleoli phenotype percent effect.
Give bare numbers, in %.

Known 5+ nucleoli phenotype percent effect results, listed for orientation:
AUAAUACAUGGUUAACCUCUUU [hsa-miR-655]    -21.2
UAACACUGUCUGGUAAAGAUGG [hsa-miR-141-3p]    44.6
CGGGUGGAUCACGAUGCAAUUU [hsa-miR-363-5p]    161
UUUCCUGUCCUCCAACCAGACC [hsa-miR-7152-5p]    -28.9
UGUGCGCAGGGAGACCUCUCCC [hsa-miR-933]    -8.45

Report 5+ nucleoli phenotype percent effect for each item below.
1. CCCUUGGGUCUGAUGGGGUAG [hsa-miR-3189-3p]
2. CUAGUGAGGGACAGAACCAGGAUUC [hsa-miR-921]
3. AUGGAGAUAGAUAUAGAAAU [hsa-miR-620]
4. AAGGGGCAGGGACGGGUGGCCC [hsa-miR-6743-5p]
5. ACUGACAGGAGAGCAUUUUGA [hsa-miR-3660]
6. UGAAGCGCCUGUGCUCUGCCGAGA [hsa-miR-7706]
7. UGGAGAGAAAGGCAGUUCCUGA [hsa-miR-185-5p]
8. AAGCCCUGUCUCCUCCCAUCU [hsa-miR-6779-3p]

Result:
1: -6.22; 2: -15.6; 3: -31.1; 4: 0.112; 5: 21.1; 6: 12.3; 7: -10.1; 8: -41.9

====

System: MCF10A
Test: percent viability (nuclei count relative to siNT); higher = more viable cells
Settings: 20 nM; 72 h
The following ranges of percent viability define the classes used here: band 1 (below 30%), band 2 (30% to below 40%), band 3 (40% or more)

# example entries with known answers
UAAGUGCUUCCAUGUUUCAGUGG [hsa-miR-302c-3p]    band 3
UCACUGUUCAGACAGGCGGA [hsa-miR-1208]    band 3
AUACUGUGAAUUUCACUGUCACA [hsa-miR-4693-5p]    band 3
UUUCUGUCUUUUCUGGUCCAG [hsa-miR-4743-3p]    band 1
GUGGGGGAGAGGCUGUC [hsa-miR-1275]    band 1
AGGGGACCAAAGAGAUAUAUAG [hsa-miR-3144-5p]    band 2
UGAGCUGCUGUACCAAAAU [hsa-miR-558]    band 3
UGUCUACUACUGGAGACACUGG [hsa-miR-934]    band 2

Task: Please report the category associated with CAGGCAGGUGUAGGGUGGAGC [hsa-miR-6893-5p] , nothing else.
Result: band 2

Task: Please report the category associated with AUAGUGGUUGUGAAUUUACCUU [hsa-miR-4460] , nothing else.
Result: band 2

Task: Please report the category associated with GAGCUUUUGGCCCGGGUUAUAC [hsa-miR-208a-5p] , nothing else.
Result: band 3

Task: Please report the category associated with CUAUUAAGGACAUUUGUGAUUC [hsa-miR-4477a] , nothing else.
Result: band 2

Task: Please report the category associated with CACACACACACACACACGUAU [hsa-miR-8485] , nothing else.
Result: band 1

====

For each record, write down the corresponding one-nucleolus phenotype percent effect.
Test system: MCF10A
Test: one-nucleolus phenotype percent effect (relative to siNT 0% and siNOL11 100%); higher = more cells with one nucleolus (ribosome biogenesis inhibition)
Settings: 20 nM; 72 h
One number for each entry, in %.

Known one-nucleolus phenotype percent effect results, listed for orientation:
GAGUGCCUUCUUUUGGAGCGUU [hsa-miR-515-3p]    -6.31
UUAGCCAAUUGUCCAUCUUUAG [hsa-miR-4662a-5p]    9.07
UGAGUGCCGGUGCCUGCCCUG [hsa-miR-1909-5p]    18.8
UUGGAGGGUGUGGAAGACAUC [hsa-miR-6515-5p]    40.1
AAGGAACCAGAAAAUGAGAAGU [hsa-miR-3914]    -40.6
CGCGGGUCGGGGUCUGCAGG [hsa-miR-3621]    -5.2
CUCCUGACUCCAGGUCCUGUGU [hsa-miR-378a-5p]    10.6
ACAUACUUCUUUAUAUGCCCAU [hsa-miR-1-5p]    11.9

Let's switch to this sequence now.
Task: # one-nucleolus phenotype percent effect lookup, item UUAUCAGAAUCUCCAGGGGUAC [hsa-miR-361-5p]
Result: -9.14
